Tested on: SK-MEL-5 melanoma
Experiment: NCI tumour cell line growth inhibition, 48 h
property-measured: TGI

molecule="CC(=O)OC1CC2C(C)(C)C(=O)C=C[C@]2(C)C2CC[C@]3(C)C(OCC(=O)[C@H]3c3ccoc3)[C@]12C (some centres not stated)" result_value="28 µM"

Hey, can you go through the list below and give me TGI for every item?
1. C=C1C(=O)OC2/C=C(/CO)C3(O)CC(O)C(C)(CC(OC(=O)/C(C)=C/C)C12)O3 (configuration not stated)
2. CCOC(=O)/C=C1/SC(N2CCCCC2)C(=O)N1CC (configuration not stated)
3. Cc1cc(O)c(/C=N/c2nc(-c3ccc([N+](=O)[O-])cc3)cs2)c(=O)o1
4. CCCCOC(=O)C(=O)C(CC(CC)C(=O)c1ccccc1)C(=O)C=C(C)C (configuration not stated)
5. Cc1ccccc1N(CC(=O)O)S(=O)(=O)c1ccccc1
6. CC(=O)N1CCC(Nc2cc(C(=O)NC[C@H](O)CN3CCc4ccccc4C3)ncn2)CC1

["54.6 µM", "> 100 µM", "> 100 µM", "> 100 µM", "> 100 µM", "> 100 µM"]

----------
Tested on: SF-539 CNS
Test: NCI tumour cell line growth inhibition, 48 h
Give true (1) when the value for TGI is at least 30 µM. Give false (0) when it is less.

molecule=NC1=NS(=O)(=O)Nc2nc(-c3ccc(Cl)cc3)[nH]c21 assigned_category="true (1)"
molecule=O=C(O)C1=CN=C(C(=O)O)NN1 assigned_category="true (1)"
molecule=CSC(Cc1ccc2c(c1)Sc1ccccc1O2)=[N+]1CCOCC1 assigned_category="true (1)"
molecule=CC1(C)NC(C)(C)/C(=N\O)C(=NO)/C1=N/O assigned_category="true (1)"
molecule=COC1(OC)CC(CO)(CNc2nc(N)nc(Cl)c2C=O)C1 assigned_category="true (1)"

Is TGI for O=c1[nH]c2[nH]c(-c3ccc(Br)cc3)cc2c2ccccc12 at or above 30 µM?
true (1)

Is TGI for COC(=O)C1CCC2(C)[C@H](CCC3O[C@]32C)[C@@]1(C)CC(=O)c1ccoc1 (some centres not stated) at or above 30 µM?
true (1)

----------
System: RPMI-8226 leukemia
Test: NCI tumour cell line growth inhibition, 48 h
property-measured: TGI

Sample answers from the record:
structure_smiles_string=COC(=O)c1cc(C)ccc1/C=C1\Cc2cccc(C)c2C1=O property_measured=TGI result_value="> 100 µM"
structure_smiles_string=CC(=O)OCCOCn1c2c(c(=O)[nH]c1=O)CCC2 property_measured=TGI result_value="> 100 µM"

# ---- query molecule ----
Short answer please: TGI, RPMI-8226 leukemia, entry O=C(O)C1=CN=C(C(=O)O)NN1
> 100 µM

----------
System: MDA-MB-231 breast
Experiment: NCI tumour cell line growth inhibition, 48 h; in the data active = GI50 below about 0.43 µM; inactive = the rest
Outcome field: choose from active, inactive

Please review the entries below; each comes with its answer.
structure_smiles_string=O=C(CCCCN1CCOCC1)Nc1ccc(Cn2nnc3c2C(=O)c2nnn(Cc4ccc(NC(=O)CCCCN5CCOCC5)cc4)c2C3=O)cc1 assigned_category=active
structure_smiles_string=COC(=O)C1=CN(CC2=CC(=O)C(C)=CC2=O)C=C(C(=O)OC)C1c1cc(OC)ccc1OC assigned_category=inactive
structure_smiles_string=COc1ccc2c(c1)NC(=O)CN2c1nc(NC2CC2)nc2ccccc12 assigned_category=active

# fetch the recorded call for O=c1ccc2nc(C(F)(F)F)nn(-c3ccccc3)c-2c1 here
inactive

----------
Kindly supply the reported TGI values for the records listed here.
Tested on: NCI-H226 lung
Assay: NCI tumour cell line growth inhibition, 48 h

Sample answers from the record:
compound="C=C1C(NC)CCC23CC24CCC2(C)C(C(C)=O)C(O)CC2(C)C4CCC13 (stereo not given)" subject_of_test="NCI-H226 lung" property_measured=TGI result_value="> 100 µM"
compound=O=C(O)c1ccccc1Sc1ccccc1[N+](=O)[O-] subject_of_test="NCI-H226 lung" property_measured=TGI result_value="> 100 µM"
compound=CC1=C(C(=O)N[C@@H](CC(C)C)C(=O)O)N2C(=O)[C@@H](NC(=O)[C@@H](N)Cc3ccccc3)[C@H]2SC1 subject_of_test="NCI-H226 lung" property_measured=TGI result_value="> 100 µM"
compound=O=[N+]([O-])c1ccc(-c2noc(-c3ccccc3)c2C2=NCCN2)cc1 subject_of_test="NCI-H226 lung" property_measured=TGI result_value="> 100 µM"

# ---- query compound ----
Short answer please: TGI, NCI-H226 lung, entry COC(=O)/C1=C/c2c([nH]c3ccccc23)/C(C(=O)OC)=C\c2c1[nH]c1ccccc21
> 50 µM

----------
Test system: A549 NSCLC
Experiment: NCI tumour cell line growth inhibition, 48 h
property-measured: TGI

Sample answers from the record:
compound=CN1CCN(CC(=O)N2c3ccccc3Sc3cc4ccccc4cc32)CC1 property_measured=TGI result_value="30.3 µM"
compound=COc1ccc(/C=c2/sc3n(c2=O)NC2(CCCCC2)NN=3)cc1 property_measured=TGI result_value="> 100 µM"
compound=CCCN(CCC)c1ccc(CO)c(Cl)c1 property_measured=TGI result_value="> 63 µM"
compound=Cc1nc2sccn2c1C(=O)N/N=C1\SCC(=O)N1C property_measured=TGI result_value="> 100 µM"
compound=CCc1cccc(C)c1NC(=O)CC(=O)NNC(N)=S property_measured=TGI result_value="> 100 µM"

Hey, can you go through the list below and give me TGI for every item?
1. CC(=O)NNc1nc(C)c(C(=O)/C=C/c2cccc([N+](=O)[O-])c2)s1
2. O=C(O)C1=CN=C(C(=O)O)NN1
3. O=C(Nc1ccc([As]=[As]c2ccc(NC(=O)c3ccccc3)cc2)cc1)c1ccccc1 (configuration not stated)
4. CC(=O)OC1CC2C(C)(C)C(=O)C=C[C@]2(C)C2CC[C@]3(C)C(OCC(=O)[C@H]3c3ccoc3)[C@]12C (some centres not stated)
5. CCCCCCCCCCn1cccc1/C=C/c1ccc(/C=C/c2cccn2CCCCCCCCCC)cc1

1: > 100 µM; 2: > 100 µM; 3: 3.59 µM; 4: 23.1 µM; 5: > 100 µM

Hey, can you go through the list below and give me TGI for every item?
1. CC(=O)c1cc(I)c(O)c2ncccc12
2. Cc1ccc(Cc2nc(=S)[nH][nH]2)cc1
3. CC(C)C[C@H](NC(=O)Cn1ccc(Nc2ccccc2)cc1=O)B(O)O
4. CSc1ncnc2c1cnn2Cc1cn(CCCCO)nn1
5. CCCCCCCCCCC(O)CCCCCCC(=O)O (configuration not stated)

> 10 µM
> 100 µM
> 100 µM
> 100 µM
54.7 µM

----------
System: NCI/ADR-RES ovarian
Experiment: NCI tumour cell line growth inhibition, 48 h
property-measured: TGI

Hey, can you go through the list below and give me TGI for every item?
1. C=CCOC(=O)C[C@H](NC(=O)[C@H](Cc1ccc(O)cc1)NCC(F)(F)F)C(=O)OCC=C
2. O=c1[nH]c2cc(F)c(F)cc2nc1Cc1ccccc1
3. CN(C(=O)CCC(=O)O)c1ccccc1C(=O)O

1: > 100 µM; 2: > 100 µM; 3: > 100 µM

----------
Test system: 786-0 renal
Experiment: NCI tumour cell line growth inhibition, 48 h
Kindly supply the reported TGI values for the records listed here.

Sample answers from the record:
structure_smiles_string=CC(C)c1ccc(/C=C2\N=C(c3ccc([N+](=O)[O-])cc3)OC2=O)cc1 subject_of_test="786-0 renal" result_value="> 100 µM"
structure_smiles_string=CSc1ncnc2c1cnn2Cc1cn(CCCCO)nn1 subject_of_test="786-0 renal" result_value="> 100 µM"
structure_smiles_string=Nn1c2c(c3ccccc3c1=O)C(=O)c1ccccc1-2 subject_of_test="786-0 renal" result_value="> 50 µM"

# ---- query molecule ----
Return reported TGI; argument: O=C(N/N=C(\CN1CCN(c2cc3[nH]cc(C(=O)O)c(=O)c3cc2F)CC1)c1ccc(Cl)cc1)c1ccncc1
> 100 µM

----------
Test system: KM12 colon
Test: NCI tumour cell line growth inhibition, 48 h
property-measured: TGI

Sample answers from the record:
compound=COC(=O)/C1=C/c2c([nH]c3ccccc23)/C(C(=O)OC)=C\c2c1[nH]c1ccccc21 subject_of_test="KM12 colon" property_measured=TGI result_value="> 50 µM"
compound="CCC1(O)CC(OC2CC(N(C)C)C(OC3CC(O)C(OC4CCC(=O)C(C)O4)C(C)O3)C(C)O2)c2c(cc3c(c2O)C(=O)c2c(O)ccc(O)c2C3=O)C1C(=O)OC (stereo unspecified)" subject_of_test="KM12 colon" property_measured=TGI result_value="0.0994 µM"
compound=CCCCCCCC(=O)SCC/C=C/[C@@H]1CC(=O)NCc2cccc(n2)CN(Cc2ccc3ccccc3c2)CC(=O)N[C@@H](C(C)C)C(=O)O1 subject_of_test="KM12 colon" property_measured=TGI result_value="> 100 µM"
compound="C[C@]12CCC(=O)CC1CC[C@@H]1C2CC[C@@]2(C)C1CC[C@@H]2OC(=O)CC[Se][Se]CCC(=O)O[C@H]1CCC2[C@@H]3CCC4CC(=O)CC[C@]4(C)C3CC[C@@]21C (stereo partly specified)" subject_of_test="KM12 colon" property_measured=TGI result_value="14.5 µM"
compound=Nc1ccc(I)cn1 subject_of_test="KM12 colon" property_measured=TGI result_value="> 100 µM"

Return reported TGI; argument: NC1=NS(=O)(=O)Nc2nc(-c3ccc(Cl)cc3)[nH]c21
> 100 µM
